Target: human glucagon receptor (human, UniProt P47871 26-477)
Sequence (P47871 26-477): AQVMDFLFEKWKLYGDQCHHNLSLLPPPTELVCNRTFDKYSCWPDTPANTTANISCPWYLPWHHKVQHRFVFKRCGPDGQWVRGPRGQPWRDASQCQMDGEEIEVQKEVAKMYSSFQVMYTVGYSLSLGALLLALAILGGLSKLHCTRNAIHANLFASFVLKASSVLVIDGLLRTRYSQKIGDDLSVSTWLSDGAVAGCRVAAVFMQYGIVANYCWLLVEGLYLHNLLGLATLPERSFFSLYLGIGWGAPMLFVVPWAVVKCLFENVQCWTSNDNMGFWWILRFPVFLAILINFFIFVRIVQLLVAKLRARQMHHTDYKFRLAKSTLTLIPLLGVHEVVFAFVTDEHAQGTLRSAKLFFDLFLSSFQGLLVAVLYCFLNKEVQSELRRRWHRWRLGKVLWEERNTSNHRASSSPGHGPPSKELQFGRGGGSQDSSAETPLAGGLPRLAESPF
Assay: cell-based or functional assay
Numbered stars: 1 amine (or outer) side, 2 acyl side, 3 side chain; on linkers, the order of the positions; unused ones are H or OH. Square brackets hold non-standard residues; d marks the D form. Side chains are listed from the residue outwards. Ends that are not written are not given here. γGlu = O=C(O)[C@H](CCC(=O)[*:2])N[*:1]; X70 = not defined here; Aib = CC(C)(N)C(=O)O
Measurement type: EC50 hGlucagon-R (cAMP) (pM)
Give bare numbers, in pM.

HXQGTFTSDLSKQKESRAAQDFIEWLKAGGPSSGAPPPS (dSer at 2; K(γE-x82) at 14; C-terminal NH2) [SEQ ID NO: 64] : 6.9
HXQGTFTSDLSKQKDKRAAQLFIEWLKAXGPSSGAPPPS (Aib at 2; K(γE-x76) at 14; dAla at 29; C-terminal NH2) [SEQ ID NO: 212] : 6.6
HXQGTFTSDLSKQKDSKAAQDFIEWLKAGGPSSGAPPPS (dSer at 2; K(γE-γE-x53) at 14; C-terminal NH2) [SEQ ID NO: 140] : 1.5
HXQGTFTSDLSKQKDSRRAQDFIEWLKXGGPSSGAPPPS (dSer at 2; K(γE-x53) at 14; Aib at 28; C-terminal NH2) [SEQ ID NO: 78] : 1.6
H[Aib]QGTFTSDLSKQK([γGlu-X70])EEEAARLFIEWLKAGGPSSGAPPPS-NH2 (reading uncertain) [SEQ ID NO: 215] : 42.6

// each binder listed below needs its EC50 hGlucagon-R (cAMP)
1. HXQGTFTSDLSKQKESKAAQLFIEWLKAGGPSSGAPPPS (dSer at 2; K(γE-x70) at 14; C-terminal NH2) [SEQ ID NO: 27]
2. HXQGTFTSDLSKQKESRRAQLFIEWLKAXGPSSGAPPPS (Aib at 2; K(γE-x70) at 14; dAla at 29; C-terminal NH2) [SEQ ID NO: 205]

Response:
25.1
5.2

These data points were gathered from patent US20180185450A1.
